tested on: Full-length (FL)-PRMT5-MEP50 enzyme complex (Homo sapiens, UniProt O14744)
Construct: Full-length (FL)-PRMT5-MEP50 enzyme complex (recombinant proteins from baculovirus-transfected Sf21 cells: FL-PRMT5; MW=73837 kDa and FL-MEP50; MW=38614); made in house; host or cells: baculovirus-transfected Sf21 cells
Sequence (O14744 whole entry): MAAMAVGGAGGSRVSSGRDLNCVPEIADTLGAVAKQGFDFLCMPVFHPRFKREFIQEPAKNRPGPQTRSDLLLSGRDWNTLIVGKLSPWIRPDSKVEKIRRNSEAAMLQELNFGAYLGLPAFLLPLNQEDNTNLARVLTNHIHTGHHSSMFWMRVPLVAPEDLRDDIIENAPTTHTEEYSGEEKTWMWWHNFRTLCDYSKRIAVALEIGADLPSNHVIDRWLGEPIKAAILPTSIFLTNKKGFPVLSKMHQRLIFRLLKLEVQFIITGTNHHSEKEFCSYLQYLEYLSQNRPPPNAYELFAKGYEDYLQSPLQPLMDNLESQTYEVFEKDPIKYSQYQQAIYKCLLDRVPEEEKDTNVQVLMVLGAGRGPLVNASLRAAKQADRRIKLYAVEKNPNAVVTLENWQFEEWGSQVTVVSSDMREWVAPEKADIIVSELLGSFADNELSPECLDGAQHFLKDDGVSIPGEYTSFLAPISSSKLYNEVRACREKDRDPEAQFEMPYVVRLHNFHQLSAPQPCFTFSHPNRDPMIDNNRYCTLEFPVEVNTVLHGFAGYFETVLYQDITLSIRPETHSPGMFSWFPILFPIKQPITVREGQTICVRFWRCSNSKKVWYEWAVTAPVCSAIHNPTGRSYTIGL
Sequence (Q9BQA1 whole entry partner): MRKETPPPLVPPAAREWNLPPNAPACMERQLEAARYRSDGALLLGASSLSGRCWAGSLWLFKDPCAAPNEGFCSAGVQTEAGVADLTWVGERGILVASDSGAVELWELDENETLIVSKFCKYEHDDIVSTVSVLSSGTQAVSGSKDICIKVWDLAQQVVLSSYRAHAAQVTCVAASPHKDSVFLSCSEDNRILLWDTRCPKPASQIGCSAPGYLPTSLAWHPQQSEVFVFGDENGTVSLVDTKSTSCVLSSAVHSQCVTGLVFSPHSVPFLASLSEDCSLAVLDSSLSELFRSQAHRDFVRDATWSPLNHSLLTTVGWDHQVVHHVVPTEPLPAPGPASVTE
method notes: PRMT5-MEP50 Enzyme Methylation Assay (Version B)
Format: biochemical
condition description: second value of 7 parameter biphasic fit; read-out: Enzyme Methylation Assay Version B (EC50 2)
Grouping rule (EC50): lower band = under 2 µM, central band = from 2 µM up to 9 µM, upper band = 9 µM and over

O=C(c1ccc(-c2nnc(C3CC3)o2)cc1)N1CCC2(CC1)Cc1ccccc1CN2 ... upper band
CCOc1nc(Cl)ccc1C(=O)N1CCC2(CC1)Cc1ccccc1CN2 ... upper band
O=C(c1ccc(C(=O)N2C3CCC2COC3)cc1)N1CCC2(Cc3ccccc3CN2)C(O)C1 (single isomer, unassigned) [Example 149] ... upper band
O=C(c1ccc(C(=O)N2C3CCC2COC3)cc1)N1CCC2(Cc3ccccc3CN2)C(O)C1 (single isomer, unassigned) [Example 150] ... lower band
Cn1ncnc1-c1ccc(C(=O)N2CCC3(CC2)Cc2ccccc2CN3)cc1 ... upper band

Problem: Lab log: CCOc1cc(C(=O)N2C3CCC2COC3)ccc1C(=O)N1CCC2(CC1)Cc1ccccc1CN2 — assign EC50 category
Solution: lower band

Problem: # repeat for [2H]C1([2H])NC2(CCN(C(=O)c3ccc(C(=O)N4C5CCC4COC5)cc3OCC)CC2)Cc2ccccc21
Solution: central band

Problem: Consider next the compound CC(=O)N1CCC(Nc2cc(C(=O)N3CCC4(Cc5ccccc5CN4)C(O)C3)ncn2)CC1 (single isomer, unassigned) [Example 93] in the same way.
Solution: lower band

Problem: What about this compound? CCOc1nc(C(F)(F)F)ccc1C(=O)N1CCC2(CC1)Cc1ccccc1CN2
Solution: upper band

Problem: Next record, please: O=C(c1ccc(-c2ncnn2C2CC2)cc1Cl)N1CC[C@]2(Cc3ccccc3CN2)[C@H](O)C1
Solution: central band

Problem: Next compound: CC(=O)N1CCC(Nc2cc(C(=O)N3CC[C@]4(Cc5ccccc5CN4)[C@H](O)C3)ccn2)C(F)(F)C1 (single isomer, unassigned) [Example 97]
Solution: central band

Problem: O=C(c1ccc(C(=O)N2C3CCC2COC3)cc1)N1CCC2(CC1)Cc1ccccc1CN2 , same question.
Solution: upper band

Problem: Thanks! And O=C(c1ccc(C(F)(F)F)nc1Cl)N1CCC2(CC1)Cc1ccccc1CN2 ?
Solution: upper band

Problem: Continue with CCOc1cc(C(=O)N2C3CCC2COC3)ccc1C(=O)N1CCC2(CC1)Cc1ccc(Cl)cc1CN2
Solution: central band
